Origin of measurements: PubChem BioAssay (NCI)

Tested on: HCT-116 colon
Experiment: NCI-60 one-dose screen, 48 h (100 = growth as untreated, 0 = no growth, -100 = all killed)
Conditions: 10 µM unless noted
The panel holds about 83,000 compounds, 20% with a hit somewhere; the sample as a whole holds those more often.
Label Satisfied when growth >= 60%; otherwise Not satisfied.

- molecule: "c1ccc(Sc2ncccn2)nc1"
  class: "Satisfied"
- molecule: "O=CN1N=C(c2ccc(F)cc2)CC1c1cccc(Nc2ccnc3cc(C(F)(F)F)ccc23)c1 (stereo not drawn)"
  class: "Not satisfied"

Input: Test whether the molecule `COc1ccccc1-c1ccc2nc(NC(=O)Nc3cc(C(F)(F)F)cc(C(F)(F)F)c3)sc2c1` records growth of 60% or higher.
Output: Not satisfied

Input: `C=CCn1c(CN2CCN(c3cc4c(cc3F)c(=O)c(C(=O)O)cn4C3CC3)CC2)n[nH]c1=S` , same question.
Output: Satisfied

Input: `O=C(N/N=C/C[C@@H]1[C@@H](/C=C/[C@@H](O)COc2cccc(Cl)c2)[C@H](O)C[C@@H]1O)c1ccncc1` , same question.
Output: Satisfied

Input: `CSc1cccc(NC(=O)Nc2nc3c(C)cccc3s2)c1` , same question.
Output: Satisfied

Input: `CCC1=C[C@H]2CN(CCc3c([nH]c4ccccc34)[C@@](C(=O)OC)(c3cc4c(cc3OC)N(C)[C@H]3[C@@](O)(C(=O)OC)[C@H](OC(C)=O)[C@]5(CC)[C@@H]6C[C@@H]6CN6CC[C@]43[C@@H]65)C2)C1` , same question.
Output: Not satisfied
